Provide the recorded IC50 for the entries that follow.
target: HSD17B13 (Homo sapiens (Human), UniProt Q7Z5P4); assay: HSD17B13 enzymatic inhibition assay (150 nM or 50 nM HSD17B13); type: biochemical; conditions: 50 nM HSD17B13; read-out: Inhibition of 50 nM of HSD17B13 IC50
Sequence (Q7Z5P4 other isoform, or with tags, fused parts or gaps): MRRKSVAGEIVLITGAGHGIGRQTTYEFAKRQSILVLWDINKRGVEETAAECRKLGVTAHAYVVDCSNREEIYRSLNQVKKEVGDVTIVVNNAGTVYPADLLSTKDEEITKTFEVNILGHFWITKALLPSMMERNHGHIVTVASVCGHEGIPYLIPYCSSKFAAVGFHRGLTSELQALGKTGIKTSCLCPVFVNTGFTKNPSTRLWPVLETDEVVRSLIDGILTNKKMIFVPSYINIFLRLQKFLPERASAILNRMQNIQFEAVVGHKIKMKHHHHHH
Give bare numbers, in nM.

Solved entries:
                                   compound  measured_parameter  scale_unit  reading
0  Cc1cccc2c1C(NC(=O)c1ccc(C(F)(F)F)[nH]c1=O)c1ccccc1O2 (stereo not shown) [Compound 157]                IC50          nM      850
1  CCCc1cc(C(=O)NC2c3ccc(Cl)cc3Oc3cccc(Cl)c32)c(=O)[nH]c1C(F)(F)F (stereo not shown) [Compound 179]                IC50          nM      400
2  O=C(NC(c1ccccc1)c1ccc(N2CCCCC2)cc1)c1ccc(C(F)(F)F)[nH]c1=O (stereo not shown) [Compound 9A]                IC50          nM     1200

Now examine the next entry.
Sample Cc1ccc2c(c1)CCC2NC(=O)c1ccc(C(F)(F)F)[nH]c1=O (stereo not shown) [Compound 238] ; IC50 observed: 680

###

assay: Microsome stability assay, human liver microsomes; format: in vitro ADME; settings: human, human liver microsomes, pooled; 1 μM compound, 0.5 mg/mL microsomal protein, NADPH, 37° C.; read-out: Microsome Stability Human liver microsomes Cl
measured_parameter: microsomal CLint at 1 h, 1 µM

Solved entries:
>>> df
                                   compound         reading
0  O=C(NC(c1ccccc1)c1ccc(Cl)cc1)c1ccc(C(F)(F)F)[nH]c1=O (centres unmarked) [Compound 21]  10.8 µL/min/mg
1  CCCC1CCc2cc(OC)ccc2C1NC(=O)c1ccc(C(F)(F)F)[nH]c1=O (centres unmarked) [Compound 289]  59.9 µL/min/mg

Answer for every listed entry: what is its microsomal CLint at 1 h, 1 µM? The entries follow.
1. CCC[C@@H]1C[C@H](NC(=O)c2ccc(C(F)(F)F)[nH]c2=O)c2ccc(C)cc2N1 [Compound 368]
2. COc1ccc2c(c1)Oc1cnccc1C2NC(=O)c1ccc(C(F)(F)F)[nH]c1=O (centres unmarked) [Compound 327]

1. 23.4 µL/min/mg
2. 15.8 µL/min/mg

###

molecular target: HSD17B13 (Homo sapiens (Human), UniProt Q7Z5P4); test: HSD17B13 enzymatic inhibition assay (150 nM or 50 nM HSD17B13); assay type: biochemical; conditions: 50 nM HSD17B13; read-out: Inhibition of 50 nM of HSD17B13 IC50
measured_parameter: pIC50
Answers are plain numbers, as −log10 of the molar value.

Solved entries:
>>> df
                                   compound  reading
0  Cc1ccc2c(c1)S(=O)(=O)c1cc(C)ccc1C2NC(=O)c1ccc(C(F)(F)F)[nH]c1=O [Compound 475]     8.00
1  CCC1CCC(NC(=O)c2ccc(C(F)(F)F)[nH]c2=O)c2ccc(C)cc21 (stereo not drawn) [Compound 300]     6.85

Answer for every listed entry: what is its pIC50? The entries follow.
1. COc1ccc(C(NC(=O)c2ccc(C(F)(F)F)[nH]c2=O)c2ccc(C)cc2)cc1 (stereo not drawn) [Compound 447]
2. COc1ccc2c(c1)Sc1cccnc1C2NC(=O)c1ccc(C(F)(F)F)[nH]c1=O (stereo not drawn) [Compound 321]
3. O=C(NC1c2ccccc2Oc2ccc(F)cc21)c1ccc(C(F)(F)F)[nH]c1=O (stereo not drawn) [Compound 150]
4. Cc1ccc2c(c1)O[C@@H]1CCCC[C@H]1[C@H]2NC(=O)c1ccc(C(F)(F)F)[nH]c1=O [Compound 541]

1. 6.80
2. 6.66
3. 6.40
4. 7.22

Answer for every listed entry: what is its pIC50? The entries follow.
1. Cc1ccc2c(c1)C(NC(=O)c1ccc(C(F)(F)F)[nH]c1=O)CC2 (stereo not drawn) [Compound 237]
2. O=C(NC1c2ccccc2Sc2ccc(CC(F)(F)F)cc21)c1ccc(C(F)(F)F)[nH]c1=O (stereo not drawn) [Compound 480]
3. CNc1cccc(C(NC(=O)c2ccc(C(F)(F)F)[nH]c2=O)c2ccc(C)cc2)c1 (stereo not drawn) [Compound 419]
4. O=C(NC(c1ccccc1)c1ccc2c(c1)CCCO2)c1ccc(C(F)(F)F)[nH]c1=O (stereo not drawn) [Compound 81]
5. Cc1ccc2c(c1)Oc1cc(C)ccc1C2NC(=O)c1cc(NC2CCNCC2)c(C(F)(F)F)[nH]c1=O [Compound 433]
6. CCC1Cc2cc(C)ccc2C(NC(=O)c2ccc(C(F)(F)F)[nH]c2=O)C1 (stereo not drawn) [Compound 388]

[6.31, 6.40, 6.20, 5.96, 6.14, 7.30]
